EXPERIMENTAL_DETAILS: physchem
Assay type: physicochemical
CONDITIONS_USED: Table S2; n-octanol/PBS pH 7.4; incubation 1
QUANTITY_KIND: D (partition ratio), incubation 1
Output: the number by itself.

Entry under test: O=C(Nc1ccccc1-c1ccc(Cl)cc1)c1cccnc1Cl [Boscalid, reference compound] . Its D (partition ratio), incubation 1 was 3.62E+03

Entry under test: COC(=O)Nc1nc2ccc(C(=O)c3ccccc3)cc2[nH]1 [Mebendazole, reference compound] . Its D (partition ratio), incubation 1 was 1.27E+03

Entry under test: O=C(O)C1C2CC1(C(=O)Nc1ccc(S(=O)(=O)Nc3nccs3)cc1)CO2 (stereo not shown) . Its D (partition ratio), incubation 1 was 2.39E-01

Entry under test: Cn1cc(C(=O)N[C@@H]2[C@@H]3CC[C@@]2(c2cc(F)c(F)c(F)c2)C3)c(C(F)F)n1 (relative stereo) . Its D (partition ratio), incubation 1 was 3.24E+04

Entry under test: O=C(N[C@@H]1[C@H]2C[C@]1(c1ccc(Cl)cc1)CO2)c1cccnc1Cl (relative stereo) . Its D (partition ratio), incubation 1 was 3.05E+03

Entry under test: O=C(NC1CCN(CCCCC2(C(=O)NCC(F)(F)F)c3ccccc3-c3ccccc32)CC1)c1ccccc1-c1ccc(C(F)(F)F)cc1 [Lomitapide, reference compound] . Its D (partition ratio), incubation 1 was 5.98E+08

Entry under test: Cn1cc(C(=O)Nc2ccccc2-c2cc(F)c(F)c(F)c2)c(C(F)F)n1 [Fluxapyroxad, reference compound] . Its D (partition ratio), incubation 1 was 3.37E+03
